# target.system: ICE (Homo sapiens)
# Sequence (P29466 120-297 limits assumed): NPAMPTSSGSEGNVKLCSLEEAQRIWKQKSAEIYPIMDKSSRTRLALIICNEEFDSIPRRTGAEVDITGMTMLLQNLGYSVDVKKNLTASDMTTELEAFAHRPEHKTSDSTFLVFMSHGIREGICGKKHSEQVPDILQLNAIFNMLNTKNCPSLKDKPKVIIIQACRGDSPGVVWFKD
# Sequence (P29466 317-404 limits assumed): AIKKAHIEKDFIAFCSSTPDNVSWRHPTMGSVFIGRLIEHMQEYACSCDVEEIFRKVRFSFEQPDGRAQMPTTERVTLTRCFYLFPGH
# assay.explanation: Enzyme assay with UV-visible substrate (visible ICE assay, Succinyl-Tyr-Val-Ala-Asp-pNitroanilide)
# Type: biochemical
# measurement.setup: Table 27
observation.type: Ki (nM)

Before answering, review these 3 worked examples.
COc1cc(C(=O)N[C@H]2CN(C(=O)CO)c3ccccc3N(CC(=O)N[C@H](C=O)CC(=O)O)C2=O)ccc1O [Compound 733] :: 5
Cc1cc(C(=O)N[C@H]2CNc3ccccc3N(CC(=O)N[C@H](C=O)CC(=O)O)C2=O)cc(C)c1O [Compound 727] :: 50
Cc1cc(C(=O)N[C@H]2CN(C(=O)C(C)C)c3ccccc3N(CC(=O)N[C@H](C=O)CC(=O)O)C2=O)cc(C)c1O [Compound 725] :: 3.7

a = COC(=O)N1C[C@H](NC(=O)c2cc(C)c(O)c(C)c2)C(=O)N(CC(=O)N[C@H](C=O)CC(=O)O)c2ccccc21 [Compound 723]
b = COc1cc(C(=O)N[C@H]2CN(C(=O)CO)c3ccccc3N(CC(=O)N[C@H](C=O)CC(=O)O)C2=O)cc(OC)c1O [Compound 732]
c = COCC(=O)N1C[C@H](NC(=O)c2cc(C)c(O)c(C)c2)C(=O)N(CC(=O)N[C@H](/C=N/OCc2c(Cl)cccc2Cl)CC(=O)O)c2ccccc21 [Compound 688c]
Data request: Arrange the 3 entries by Ki so the values rise. Note for the reader: the ranking is given by listing the labels in the order requested.
Data returned: a, b, c
